# tested_target: rNK1 (Rattus norvegicus, UniProt P14600)
# Sequence (P14600 whole entry): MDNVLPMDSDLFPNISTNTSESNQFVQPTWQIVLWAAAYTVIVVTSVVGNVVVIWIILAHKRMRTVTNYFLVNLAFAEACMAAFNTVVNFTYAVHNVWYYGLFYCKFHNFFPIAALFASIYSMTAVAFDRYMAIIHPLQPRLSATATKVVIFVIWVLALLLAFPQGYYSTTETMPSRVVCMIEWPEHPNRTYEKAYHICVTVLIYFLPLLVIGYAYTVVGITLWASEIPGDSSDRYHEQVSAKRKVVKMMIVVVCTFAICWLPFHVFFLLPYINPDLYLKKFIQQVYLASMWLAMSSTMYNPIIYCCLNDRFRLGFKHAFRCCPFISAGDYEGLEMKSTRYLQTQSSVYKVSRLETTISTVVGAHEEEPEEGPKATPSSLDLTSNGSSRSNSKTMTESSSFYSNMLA
# assay_remarks: Radioligand binding assay at rat NK1 receptor
# protocol_conditions: Ki^rNK1 (nM)
Non-standard residues stand in square brackets, D forms with d. Residues, ends and D or L forms follow the SMILES beside them. *: point of attachment. NH(3,5-(CF3)2-benzyl) = FC(F)(F)c1cc(CN*)cc(C(F)(F)F)c1; NMePhe(4-F) = CN[C@@H](Cc1ccc(F)cc1)C(=O)O; NMeW = CN[C@@H](Cc1c[nH]c2ccccc12)C(=O)O; NMeF = CN[C@@H](Cc1ccccc1)C(=O)O
property_name: Ki (nM)
Please state the figure in nM; there is no need to write the unit.

Example results:
CC(C)C[C@H](NC(=O)[C@@H]1CCCN1C(=O)[C@H](Cc1ccccc1)N(C)C(=O)[C@H](Cc1c[nH]c2ccccc12)N(C)C(=O)[C@@H]1CCCN1C(=O)[C@@H](N)Cc1ccc(O)cc1)C(=O)N[C@@H](Cc1c[nH]c2ccccc12)C(=O)NCc1cc(C(F)(F)F)cc(C(F)(F)F)c1 [AKG225] (H-YP[NMeW][NMeF]PLW-{NH(3,5-(CF3)2-benzyl)}) : 302
CC(C)C[C@H](NC(=O)[C@@H]1CCCN1C(=O)[C@H](CO)NC(=O)[C@H](Cc1ccc(F)cc1)N(C)C(=O)CNC(=O)[C@@H](C)NC(=O)[C@@H](N)Cc1ccc(O)cc1)C(=O)N[C@@H](Cc1c[nH]c2ccccc12)C(=O)NCc1cc(C(F)(F)F)cc(C(F)(F)F)c1 [AKG134] (H-Y[dA]G[NMePhe(4-F)]SPLW-{NH(3,5-(CF3)2-benzyl)}) : 50.2

We next turn to a different compound, shown below.
Fill in: Ki of CC(C)C[C@H](NC(=O)[C@@H]1CCCN1C(=O)c1ccc(CNC(=O)[C@H](Cc2ccccc2)N(C)C(=O)CNC(=O)[C@@H](C)NC(=O)[C@@H](N)Cc2ccc(O)cc2)cc1)C(=O)N[C@@H](Cc1c[nH]c2ccccc12)C(=O)NCc1cc(C(F)(F)F)cc(C(F)(F)F)c1 [AKG125] is ___ 30

====

# tested_target: hNK1 (Homo sapiens, UniProt P25103)
# Construct: expressed in transfected cells; host or cells: CHO
# Sequence (P25103 whole entry): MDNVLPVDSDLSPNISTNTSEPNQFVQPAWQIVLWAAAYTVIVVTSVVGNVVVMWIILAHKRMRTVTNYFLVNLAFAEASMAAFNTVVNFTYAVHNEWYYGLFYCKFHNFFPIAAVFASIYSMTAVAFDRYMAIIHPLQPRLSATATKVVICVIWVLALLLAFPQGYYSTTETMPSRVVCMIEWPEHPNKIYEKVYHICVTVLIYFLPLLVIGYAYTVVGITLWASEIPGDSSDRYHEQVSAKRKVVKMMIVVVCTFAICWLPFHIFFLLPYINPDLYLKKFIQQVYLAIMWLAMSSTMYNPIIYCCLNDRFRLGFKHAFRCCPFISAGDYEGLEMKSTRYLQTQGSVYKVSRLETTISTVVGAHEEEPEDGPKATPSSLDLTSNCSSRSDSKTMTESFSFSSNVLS
# assay_remarks: hNK1/CHO cell membrane radioligand binding assay ([3H]SP)
# protocol_conditions: ratio human/rat NK1
Non-standard residues stand in square brackets, D forms with d. Residues, ends and D or L forms follow the SMILES beside them. *: point of attachment. NH(3,5-(CF3)2-benzyl) = FC(F)(F)c1cc(CN*)cc(C(F)(F)F)c1; Phe(4-F) = N[C@@H](Cc1ccc(F)cc1)C(=O)O; NMeF = CN[C@@H](Cc1ccccc1)C(=O)O
Quick list: Ki^hNK1/Ki^rNK1 per entry.

Given the compound CC(C)C[C@H](NC(=O)[C@@H]1CCCN1C(=O)CNC(=O)[C@H](CCC(N)=O)NC(=O)[C@H](Cc1ccccc1)N(C)C(=O)CNC(=O)[C@@H](C)NC(=O)[C@@H](N)Cc1ccc(O)cc1)C(=O)N[C@@H](Cc1c[nH]c2ccccc12)C(=O)NCc1cc(C(F)(F)F)cc(C(F)(F)F)c1 [AKG-SK-145] (H-Y[dA]G[NMeF]QGPLW-{NH(3,5-(CF3)2-benzyl)}) , what is its reported Ki^hNK1/Ki^rNK1? 1/16

Entry to check: CC(C)C[C@H](NC(=O)[C@@H]1CCCN1C(=O)CCNC(=O)[C@H](Cc1ccccc1)N(C)C(=O)CNC(=O)[C@@H](C)NC(=O)[C@@H](N)Cc1ccc(O)cc1)C(=O)N[C@@H](Cc1c[nH]c2ccccc12)C(=O)NCc1cc(C(F)(F)F)cc(C(F)(F)F)c1 [AKG119] 1/32

# repeat for CC(C)C[C@H](NC(=O)[C@@H]1CCCN1C(=O)CNC(=O)[C@H](Cc1ccc(F)cc1)NC(=O)CNC(=O)[C@@H](C)NC(=O)[C@@H](N)Cc1ccc(O)cc1)C(=O)N[C@@H](Cc1c[nH]c2ccccc12)C(=O)NCc1cc(C(F)(F)F)cc(C(F)(F)F)c1 [AKG130] (H-Y[dA]G[Phe(4-F)]GPLW-{NH(3,5-(CF3)2-benzyl)}) 1/47

Ok, now CC(C)C[C@H](NC(=O)[C@@H]1CCCN1C(=O)[C@H](Cc1ccccc1)N(C)C(=O)[C@H](Cc1ccccc1)NC(=O)[C@@H]1CCCN1C(=O)[C@@H](N)Cc1ccc(O)cc1)C(=O)N[C@@H](Cc1c[nH]c2ccccc12)C(=O)NCc1cc(C(F)(F)F)cc(C(F)(F)F)c1 [AKG224] (H-YPF[NMeF]PLW-{NH(3,5-(CF3)2-benzyl)}) 1/10

Cc1cc(O)cc(C)c1C[C@H](N)C(=O)N[C@H](C)C(=O)NCC(=O)N[C@@H](Cc1ccc(F)cc1)C(=O)N1CCC[C@H]1C(=O)N[C@@H](CC(C)C)C(=O)N[C@@H](Cc1c[nH]c2ccccc12)C(=O)NCc1cc(C(F)(F)F)cc(C(F)(F)F)c1 [AKG127] , same question. 1/33

Consider next the compound Cc1cc(O)cc(C)c1C[C@H](N)C(=O)N[C@H](C)C(=O)NCC(=O)N(C)[C@@H](Cc1ccc(F)cc1)C(=O)N1CCC[C@H]1C(=O)N[C@@H](CC(C)C)C(=O)N[C@@H](Cc1c[nH]c2ccccc12)C(=O)NCc1cc(C(F)(F)F)cc(C(F)(F)F)c1 [AKG128] in the same way. 1/13

Same for Cc1cc(O)cc(C)c1C[C@H](N)C(=O)N[C@H](C)C(=O)N(C)CC(=O)N(C)[C@@H](Cc1ccccc1)C(=O)N1CCC[C@H]1C(=O)N[C@@H](CC(C)C)C(=O)N[C@@H](Cc1c[nH]c2ccccc12)C(=O)NCc1cc(C(F)(F)F)cc(C(F)(F)F)c1 [AKG182] 1/22

FYI, the data here is from patent US11141452B2.
